# Test system: Staphylococcus aureus V41
# Protocol Details: MIC, conventional agar-dilution assay
# Assay type: cell-based
Starred links: 1 amine or outer side, 2 acyl side, 3 side chain; linkers in the order of their positions; H or OH if unused. Positions of bridges follow the written chain, without caps; N, C: chain ends. Non-standard residues stand in square brackets, D forms with d. Residues, ends and D or L forms follow the SMILES beside them. ξ: configuration not given here. *: point of attachment. ξAsp(3ξ-OMe) = COC(C(=O)O)C(N)C(=O)O; X1 = CC(CC(=O)O)C(N[*:1])C(=O)[*:2]; ξAsn(3ξ-OH) = NC(=O)C(O)C(N)C(=O)O; Decanoyl = CCCCCCCCCC(=O)*; Sar = CNCC(=O)O
Listed here are compounds together with their documented MIC.
Your answer is read as µg/mL, so omit the unit and give the number.

[[record]]
compound = "CCCCCCCCCC(=O)NC(Cc1c[nH]c2ccccc12)C(=O)NC(CCC(=O)O)C(=O)NC(C(=O)NC1C(=O)N(C)CC(=O)NC(C)C(=O)NC(CC(=O)O)C(=O)NC(CCCCN)C(=O)NC(C(OC)C(=O)O)C(=O)NCC(=O)NC(CC(N)=O)C(=O)NC(CCC(=O)O)C(=O)NC(C(C)CC)C(=O)OC1C)C(O)C(N)=O (centres unmarked) [Component A54145A1] (Decanoyl-WE[ξAsn(3ξ-OH)]T[Sar]ADK[ξAsp(3ξ-OMe)]GNEI; ester 4-C; configuration not given here)"
reported_result = 4


# next compound below
# input Report measured MIC; entry is CCCCCCCCCC(=O)NC(Cc1c[nH]c2ccccc12)C(=O)NC(CCC(=O)O)C(=O)NC(C(=O)NC1C(=O)N(C)CC(=O)NC(C)C(=O)NC(CC(=O)O)C(=O)NC(CCCCN)C(=O)NC(C(OC)C(=O)O)C(=O)NCC(=O)NC(CC(N)=O)C(=O)NC(C(C)CC(=O)O)C(=O)NC(C(C)CC)C(=O)OC1C)C(O)C(N)=O (centres unmarked) [Component A54145B] (Decanoyl-WE[ξAsn(3ξ-OH)]T[Sar]ADK[ξAsp(3ξ-OMe)]GN[X1]I; ester 4-C; configuration not given here)
# output 2

* * *

# Tested on: Streptococcus pyogenes C203
# Protocol Details: MIC, conventional agar-dilution assay
# Type: cell-based
Starred links: 1 amine or outer side, 2 acyl side, 3 side chain; linkers in the order of their positions; H or OH if unused. Positions of bridges follow the written chain, without caps; N, C: chain ends. Non-standard residues stand in square brackets, D forms with d. Residues, ends and D or L forms follow the SMILES beside them. ξ: configuration not given here. *: point of attachment. ξAsp(3ξ-OMe) = COC(C(=O)O)C(N)C(=O)O; X1 = CC(CC(=O)O)C(N[*:1])C(=O)[*:2]; ξAsn(3ξ-OH) = NC(=O)C(O)C(N)C(=O)O; Decanoyl = CCCCCCCCCC(=O)*; X2 = CC(C)CCCCCCC(=O)*; Sar = CNCC(=O)O
Measurement Label: MIC (µg/mL)
Your answer is read as µg/mL, so omit the unit and give the number.

[[record]]
molecule = "CCC(C)C1NC(=O)C(C(C)CC(=O)O)NC(=O)C(CC(N)=O)NC(=O)CNC(=O)C(C(OC)C(=O)O)NC(=O)C(CCCCN)NC(=O)C(CC(=O)O)NC(=O)C(C)NC(=O)CN(C)C(=O)C(NC(=O)C(NC(=O)C(CCC(=O)O)NC(=O)C(Cc2c[nH]c3ccccc23)NC(=O)CCCCCCC(C)C)C(O)C(N)=O)C(C)OC1=O (centres unmarked) [Component A54145B1] (X2-WE[ξAsn(3ξ-OH)]T[Sar]ADK[ξAsp(3ξ-OMe)]GN[X1]I; ester 4-C; configuration not given here)"
reported_result = 0.5


# next molecule below
# input Report measured MIC; entry is CCCCCCCCCC(=O)NC(Cc1c[nH]c2ccccc12)C(=O)NC(CCC(=O)O)C(=O)NC(C(=O)NC1C(=O)N(C)CC(=O)NC(C)C(=O)NC(CC(=O)O)C(=O)NC(CCCCN)C(=O)NC(C(OC)C(=O)O)C(=O)NCC(=O)NC(CC(N)=O)C(=O)NC(CCC(=O)O)C(=O)NC(C(C)CC)C(=O)OC1C)C(O)C(N)=O (centres unmarked) [Component A54145A1] (Decanoyl-WE[ξAsn(3ξ-OH)]T[Sar]ADK[ξAsp(3ξ-OMe)]GNEI; ester 4-C; configuration not given here)
# output 1
